- Test system: HCT-116 colon
- TEST DESCRIPTION: NCI-60 one-dose screen, 48 h
- CONDITIONS: 10 µM
This is part of a sample that, as a whole, favours compounds with a hit. Of some 83,000 tested, about 20% had one in any assay. Activity calls are given as the source filed them. How the source made its calls: active means growth percent below 10; inactive means the rest.
Please reply with one of these outcomes: 1 (active), 0 (inactive)

{"COMPOUND": "Cc1cc(C)nc(/N=C(\\N)Nc2ccc(S(=O)(=O)Nc3nc(C)cc(C)n3)cc2)n1", "CLASS ASSIGNMENT": 0}
{"COMPOUND": "Cc1noc2c(Cc3ccc([N+](=O)[O-])cc3)nn(CC(=O)N/N=C/c3ccc(Br)cc3)c(=O)c12", "CLASS ASSIGNMENT": 0}

*Q* Look up the recorded call for C=C1CCC2C3(C)COC(c4c(F)cccc4F)OC3CCC2(C)C1C/C=C1/C(=O)OCC1O (centres undefined) in this test.
*A* 1

*Q* Look up the recorded call for COc1ccc2[nH]c(O)c(N=NC(=O)COc3ccc(NC(=O)Nc4ccc(Cl)c(Cl)c4)cc3)c2c1 in this test.
*A* 1
